Test system: NCI-H23 complex spheroids with HUVEC/MSC, viability
Experiment: Anticancer human tumor NCI-H23 cell line growth inhibition [RAS];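 also: spheroids exposed to compound for 7 days; 100% = DMSO vehicle control viability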
Conditions: second compound 1 µM; first compound 0.316 µM; active compounds read low
propertyName: viability, T/C (%)
Write the number in % without appending the unit.

Please review the entries below; each comes with its answer.
C[C@@H](NC(=O)c1ncnc(N)c1Cl)c1ncc(C(=O)Nc2cc(C(F)(F)F)c(Cl)cn2)s1 + C#Cc1c(F)ccc2cc(O)cc(-c3ncc4c(N5CC6CCC(C5)N6)nc(OCC56CCCN5CC(F)C6)nc4c3F)c12 : 93.1
C=CC(=O)Nc1cc(Nc2nccc(-c3cn(C)c4ccccc34)n2)c(OC)cc1N(C)CCN(C)C + C#Cc1c(F)ccc2cc(O)cc(-c3ncc4c(N5CC6CCC(C5)N6)nc(OCC56CCCN5CC(F)C6)nc4c3F)c12 : 77.1

Now turn to the next compound.
Measured on NCI-H23 complex spheroids with HUVEC/MSC, viability, CCN1CCN(Cc2ccc(Nc3ncc(F)c(-c4cc(F)c5nc(C)n(C(C)C)c5c4)n3)nc2)CC1 + C=CC(=O)N1CCN(c2nc(OCC3CCCN3C)nc3c(F)c(-c4nc(N)cc(C)c4C(F)(F)F)c(Cl)cc23)C(C)C1 has a documented viability, T/C of 17.8

====

Test system: NCI-H23 complex spheroids with HUVEC/MSC, viability
Assay: Anticancer human tumor NCI-H23 cell line growth inhibition [RAS]; active = viability on the fitted dose curve at most 10% of control; inactive = the rest;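 also: spheroids exposed to compound for 7 days; 100% = DMSO vehicle control viability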
Conditions: second compound 0.0316 µM; first compound 0.0316 µM
Select the correct class. Options are active, inactive and nothing else.

# example entries with known answers
Nc1ccn(C2OC(CO)C(O)C2(F)F)c(=O)n1 (stereo not given) + C=CC(=O)N1CCN(c2nc(OCC3CCCN3C)nc3c(F)c(-c4nc(N)cc(C)c4C(F)(F)F)c(Cl)cc23)C(C)C1 : active
CC(=O)OC12COC1CC(O)C1(C)C(=O)C(O)C3=C(C)C(OC(=O)C(O)C(NC(=O)OC(C)(C)C)c4ccccc4)CC(O)(C(OC(=O)c4ccccc4)C21)C3(C)C (stereo not given) + C=CC(=O)N1CCN(c2nc(OCC3CCCN3C)nc3c(F)c(-c4nc(N)cc(C)c4C(F)(F)F)c(Cl)cc23)C(C)C1 : inactive
C[C@@H](NC(=O)c1ncnc(N)c1Cl)c1ncc(C(=O)Nc2cc(C(F)(F)F)c(Cl)cn2)s1 + C=CC(=O)N1CCN(c2nc(OCC3CCCN3C)nc3c(F)c(-c4nc(N)cc(C)c4C(F)(F)F)c(Cl)cc23)C(C)C1 : inactive

## Input Hi, do you know how CCC(CC)c1cc(NC2CCC(N)C2)n2nccc2n1 (stereo not given) + C=CC(=O)N1CCN(c2nc(OCC3CCCN3C)nc3c(F)c(-c4nc(N)cc(C)c4C(F)(F)F)c(Cl)cc23)C(C)C1 came out in this test?
## Output inactive

## Input Hi, do you know how CC(C)NCC(C(=O)N1CCN(c2ncnc3c2C(C)CC3O)CC1)c1ccc(Cl)cc1 (stereo not given) + C#Cc1c(F)ccc2cc(O)cc(-c3ncc4c(N5CC6CCC(C5)N6)nc(OCC56CCCN5CC(F)C6)nc4c3F)c12 came out in this test?
## Output inactive

====

Tested on: NCI-H23 complex spheroids with HUVEC/MSC, viability
Test: Anticancer human tumor NCI-H23 cell line growth inhibition [RAS];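 also: spheroids exposed to compound for 7 days; 100% = DMSO vehicle control viability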
Details: second compound 0.000949 µM; first compound 0.01 µM; active compounds read low
List of viability, T/C values.

C=CC(=O)N1CCN(c2nc(OCC3CCCN3C)nc3c(F)c(-c4nc(N)cc(C)c4C(F)(F)F)c(Cl)cc23)C(C)C1 (stereo not given) + CCn1c(-c2cccnc2C(C)OC)c2c3cc(ccc31)N1CCOC(CC(NC(=O)C(C(C)C)N(C)C(=O)C3(F)CCN(C(=O)C#CC(C)(C)N(C)C)CC3)C(=O)N3CCCC(N3)C(=O)OCC(C)(C)C2)C1 : 35.5%

viability, T/C for Nc1ccn(C2OC(CO)C(O)C2(F)F)c(=O)n1 (stereo not given) + CCn1c(-c2cc(N3CCN(C)CC3)cnc2C(C)OC)c2c3cc(ccc31)-c1csc(n1)CC(NC(=O)C1CC1C)C(=O)N1CCCC(N1)C(=O)OCC(C)(C)C2 is 2.1%

viability, T/C for CCN1CCN(Cc2ccc(Nc3ncc(F)c(-c4cc(F)c5nc(C)n(C(C)C)c5c4)n3)nc2)CC1 + CCn1c(-c2cc(N3CCN(C)CC3)cnc2C(C)OC)c2c3cc(ccc31)-c1csc(n1)CC(NC(=O)C1CC1C)C(=O)N1CCCC(N1)C(=O)OCC(C)(C)C2 is 32.9%

viability, T/C for O=C(c1ccc(F)c(F)c1Nc1ccc(I)cc1F)N1CC(O)([C@@H]2CCCCN2)C1 + CCn1c(-c2cc(N3CCN(C)CC3)cnc2C(C)OC)c2c3cc(ccc31)-c1csc(n1)CC(NC(=O)C1CC1C)C(=O)N1CCCC(N1)C(=O)OCC(C)(C)C2 is 42.1%
